- TARGET_OF_ASSAY: T1, PriA helicase (Neisseria gonorrhoeae, UniProt Q5F6V8 1-729)
- T1 sequence: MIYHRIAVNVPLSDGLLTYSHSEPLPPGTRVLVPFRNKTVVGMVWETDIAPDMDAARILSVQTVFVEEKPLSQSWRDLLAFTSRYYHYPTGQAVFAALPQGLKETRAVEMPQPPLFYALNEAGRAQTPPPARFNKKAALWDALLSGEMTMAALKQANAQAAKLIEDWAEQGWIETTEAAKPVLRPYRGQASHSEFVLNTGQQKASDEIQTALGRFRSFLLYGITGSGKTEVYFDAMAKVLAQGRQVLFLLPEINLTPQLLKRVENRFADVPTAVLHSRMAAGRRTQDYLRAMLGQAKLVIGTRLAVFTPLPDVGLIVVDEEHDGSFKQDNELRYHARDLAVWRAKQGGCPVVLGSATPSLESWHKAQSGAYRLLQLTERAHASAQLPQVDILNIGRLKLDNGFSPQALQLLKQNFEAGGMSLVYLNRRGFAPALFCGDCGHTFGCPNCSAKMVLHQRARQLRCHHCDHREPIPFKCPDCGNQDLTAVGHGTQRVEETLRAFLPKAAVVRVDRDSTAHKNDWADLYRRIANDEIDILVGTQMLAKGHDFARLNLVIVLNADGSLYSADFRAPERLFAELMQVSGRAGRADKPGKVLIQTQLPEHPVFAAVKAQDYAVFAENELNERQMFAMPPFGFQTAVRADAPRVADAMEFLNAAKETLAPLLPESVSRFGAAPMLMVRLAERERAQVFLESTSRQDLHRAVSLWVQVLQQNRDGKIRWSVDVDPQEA
- METHOD_NOTES: fluorescence polarization; 20 mM Tris-HCl pH 8, 10% glycerol, 50 mM NaCl, 1 mM 2-mercaptoethanol, 0.1 mg/ml BSA, 1 nM fluorescein-labeled DNA, 25 C
- STUDY_CONDITIONS: protein: recombinant; label: 3' fluorescein on S5 (nascent lagging strand); 25 bp duplex, 3' overhang 25 nt on strand 1
READOUT_KIND: pKd
Friendly reminder that pKd comes from taking -log10 of the concentration in mol/L.

q: Answer with reported pKd of 3' Overhang (oML276/oML277) (mixed) DNA 1: AACGTCATAGACGATTACATTGCTACATGGAGCTGTCTAGAGGATCCGAC DNA 2: TAGCAATGTAATCGTCTATGACGTT
a: 6.63
